Reported Ki for target or system LF 263-C catalytic domain (anthrax lethal factor) (Bacillus anthracis, UniProt P15917), by entry.
One number for each entry, in nM.

[[record]]
mol_smiles = "Cc1cc(N[C@H](CCCCN[C@H](C)c2ccc(Cl)cn2)C(=O)NO)cc(C)c1F"
reading = 0.35

[[record]]
mol_smiles = "COc1ccc(CN(C)CCCC[C@@H](Cc2cc(C)c(F)c(F)c2)C(=O)NO)nc1"
reading = 4.9

[[record]]
mol_smiles = "CC[C@@H](NCCCC[C@@H](C[C@@H](OC)c1ccc(F)cc1)C(=O)NO)c1ncc(Cl)cc1Cl"
reading = 2.4

[[record]]
mol_smiles = "Cc1cc(C[C@H](CCCCN(C)Cc2ccc(F)cn2)C(=O)NO)cc(C)c1F"
reading = 1.6

[[record]]
mol_smiles = "CO[C@H](C[C@H](CCCCN[C@@H](c1ccc(Cl)cn1)C(C)C)C(=O)NO)c1ccc(F)c(C)c1"
reading = 2.3

[[record]]
mol_smiles = "Cc1cc(C[C@H](CCCCN[C@@H](C)c2ccc(F)cn2)C(=O)NO)cc(C)c1F"
reading = 0.44

[[record]]
mol_smiles = "Cc1cc(C[C@H](CCCCN[C@H](c2ccc(F)cn2)C(C)C)C(=O)NO)cc(C)c1F"
reading = 0.87

[[record]]
mol_smiles = "COc1ccc([C@H](NCCCC[C@@H](C[C@@H](OC)c2ccc(F)cc2)C(=O)NO)C(C)C)nc1"
reading = 2.7


Would you mind listing Ki for each of the following compounds?
1. COc1ccc(CN(C)CCCC[C@@H](Cc2cc(C)c(F)c(Cl)c2)C(=O)NO)nc1
2. Cc1cc(C[C@H](CCCCNCc2ccccn2)C(=O)NO)cc(C)c1F
3. CO[C@H](C[C@H](CCCCNCc1ccc(Cl)cn1)C(=O)NO)c1ccc(F)cc1
4. CCN(CCCC[C@@H](Cc1cc(C)c(F)c(C)c1)C(=O)NO)[C@H](C)c1ccc(C(F)(F)F)cn1
5. Cc1cc(C[C@H](CCCCN[C@@H](c2ccc(Cl)cn2)C(C)C)C(=O)NO)cc(C)c1F
6. Cc1ccc([C@@H](CO)NCCCC[C@@H](Nc2cc(C)c(F)c(C)c2)C(=O)NO)nc1

stdout:
1.5
1
2.2
3.6
0.17
0.17

Kindly give each listed record's Ki.
1. Cc1cc(C[C@H](CCCCN[C@@H](c2ccc(F)cn2)C(C)C)C(=O)NO)cc(Cl)c1F
2. Cc1cc(C[C@H](CCCCN[C@H](C)c2ccc(F)cn2)C(=O)NO)cc(C)c1F

stdout:
1. 0.25
2. 0.15

====

Target: LF 263-C catalytic domain (anthrax lethal factor) (Bacillus anthracis, UniProt P15917)
Sequence (P15917 296-809 limits assumed): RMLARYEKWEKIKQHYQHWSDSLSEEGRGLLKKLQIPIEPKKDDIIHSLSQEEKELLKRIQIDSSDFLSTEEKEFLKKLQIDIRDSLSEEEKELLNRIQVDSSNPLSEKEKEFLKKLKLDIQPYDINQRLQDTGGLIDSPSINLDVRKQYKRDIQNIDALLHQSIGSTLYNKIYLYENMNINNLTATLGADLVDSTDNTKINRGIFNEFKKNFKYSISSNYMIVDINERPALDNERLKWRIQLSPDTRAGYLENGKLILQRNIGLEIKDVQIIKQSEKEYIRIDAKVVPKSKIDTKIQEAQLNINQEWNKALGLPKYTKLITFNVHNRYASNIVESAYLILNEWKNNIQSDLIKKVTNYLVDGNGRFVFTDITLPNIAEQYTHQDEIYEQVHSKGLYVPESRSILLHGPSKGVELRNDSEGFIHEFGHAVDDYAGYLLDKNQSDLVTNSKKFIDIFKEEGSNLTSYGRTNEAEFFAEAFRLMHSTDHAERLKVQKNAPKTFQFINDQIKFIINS
Give measured pKi for each item. Keep answers brief.
One number for each entry, as −log10 of the molar value.

[[record]]
molecule = "Cc1cc(C[C@H](CCCCN[C@@H](c2ncc(F)cc2F)C(C)C)C(=O)NO)cc(C)c1F [Compound 23]"
reading = 9.60

[[record]]
molecule = "Cc1cc(N[C@H](CCCCN[C@H](CO)c2ccc(F)cn2)C(=O)NO)cc(C)c1F [Compound 2]"
reading = 9.85

[[record]]
molecule = "CCN(CCCC[C@@H](C[C@@H](OC)c1ccc(F)c(C)c1)C(=O)NO)Cc1ccc(Cl)cn1 [Compound 57]"
reading = 8.55

[[record]]
molecule = "CO[C@H](C[C@H](CCCCN(C)Cc1cc(C)ccn1)C(=O)NO)c1ccc(F)cc1 [Compound 46]"
reading = 7.85


Give pKi for each of the items listed below.
1. Cc1cc(C[C@H](CCCCNC(C)(C)c2ccc(F)cn2)C(=O)NO)cc(C)c1F [Compound 20]
2. CC[C@@H](NCCCC[C@@H](C[C@@H](OC)c1ccc(F)cc1)C(=O)NO)c1ccc(Cl)cn1 [Compound 56]
3. CC[C@@H](NCCCC[C@@H](Nc1cc(C)c(F)c(C)c1)C(=O)NO)c1ncc(F)cc1F [Compound 5]
4. Cc1cc(C[C@H](CCCCN[C@@H](c2ccc(F)cn2)C(C)C)C(=O)NO)cc(F)c1F [Compound 36]

stdout:
9.72
9.10
9.41
9.14
